Cited source: patent US6057371A

biological target: sigma receptor; experiment: Sigma receptor binding, [^3 H]DTG, brain membranes (both sigma-1 and sigma-2 sites); design: species or system guinea pig; conditions: Table 6; [^3 H]DTG
Answer each item with its documented IC50.
Your answer should be a plain number; it is taken to be in nM.

query: Looking for the measured IC50 of O=C1c2ccccc2C(=O)N1CCN1CCN(c2ccccc2)CC1 , can you help?
result: 17000

query: Looking for the measured IC50 of CCOc1ccc(CC(C)NCCCc2ccccc2)cc1 (racemic) , can you help?
result: 7.08

query: Looking for the measured IC50 of c1ccc(CCCCCN2CCC(c3ccccc3)CC2)cc1 , can you help?
result: 0.96

query: Looking for the measured IC50 of CCCc1ccc(CC(C)N(C)CCCc2ccccc2)cc1 (centres unmarked) , can you help?
result: 2.43

query: Looking for the measured IC50 of O=C(CCCCN1CCC(c2ccccc2)CC1)c1ccccc1 , can you help?
result: 1.03
